# Assay summary: chemical genetic growth profiling, strain panel (AID 1159580);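 also: tested at 20 µM; growth read once vehicle control cultures reached saturation at 30 °C; 1 = growth at the plate median or of vehicle wells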
# Condition: S. cerevisiae deletion strains, growth OD, locus YER016W, strain bim1
In all, about 5,500 compounds went through this assay and about 2,000 (36%) were called active. Roughly 18% stayed inconclusive and do not appear here. Rule as the data show it: active = normalized growth mostly below about 0.91 (no sharp cut-off); inconclusive = no clear call, values can overlap the other calls; inactive = mostly above about 0.92. Some of the results follow.
Please reply with one of these outcomes: active, inactive

Answered cases to consult:
>  <Molecule>
CC1=CC2C(CC1=O)C(C)=CCC2C(C)C (stereo unspecified)

>  <Assigned class>
inactive

$$$$
>  <Molecule>
C=C1C(=O)OC2CC1C(OC(C)=O)C/C(C)=C/CC/C(C)=C/CC[C@]2(C)O (stereo partly specified)

>  <Assigned class>
inactive

$$$$
>  <Molecule>
COc1ccc(CCN2CCC(Nc3nc4ccccc4n3Cc3ccc(F)cc3)CC2)cc1

>  <Assigned class>
active

$$$$
>  <Molecule>
O=c1[nH]oc2c1CCNC2

>  <Assigned class>
inactive

$$$$
>  <Molecule>
COc1cc2occ(-c3ccccc3)c(=O)c2c(OC)c1C

>  <Assigned class>
inactive

$$$$
>  <Molecule>
CCCCCCCCCCCCCCCC(=O)OC1C(SC)OC(C(NC(=O)C2CC(CCC)CN2C)C(C)Cl)C(O)C1O (stereo unspecified)

>  <Assigned class>
inactive

$$$$
>  <Molecule>
C=C1C(=O)O[C@@H]2C[C@@]3(C)CCC[C@H](C)C3=C[C@H]12

>  <Assigned class>
active

$$$$
>  <Molecule>
C#CCCCCCCCCCCCC(=O)CC(O)COC(C)=O (stereo unspecified)

>  <Assigned class>
inactive

$$$$
>  <Molecule>
COc1cc(OC)c2c(=O)c(-c3ccccc3)coc2c1

>  <Assigned class>
inactive

$$$$
>  <Molecule>
C#CCCCCCCCCCCCC(O)CC(O)COC(C)=O (stereo unspecified)

>  <Assigned class>
active

$$$$

// switching to the query molecule
Prompt: Field: outcome | Entry: `CC(=O)OCC[C@H](C)CCC=C(C)C`
Response: inactive

----------
# Assay summary: chemical genetic growth profiling, strain panel (AID 1159580)
# Condition: S. cerevisiae deletion strains, growth OD, locus YDR335W, strain msn5, active compounds read low
The campaign covered roughly 5,500 compounds. About 2,000 (36%) were called active. About 18% were inconclusive and are not listed. Some of the results follow.
Readout: normalized growth
Give your answer as a number; write no unit.

Examples with their reported normalized growth follow.
>  <Compound>
CO/N=C(\C(=O)NC1C(=O)N2C(C(=O)O)=C(COC(N)=O)CSC12)c1ccco1 (centres undefined)

>  <Readout>
normalized growth

>  <Observed>
0.975

$$$$
>  <Compound>
CO/N=C(\C(=O)N[C@@H]1C(=O)N2C(C(=O)O)=C(CSc3nc(=O)c(O)nn3C)CS[C@H]12)c1csc(N)n1

>  <Readout>
normalized growth

>  <Observed>
0.966

$$$$
>  <Compound>
CO/N=C(\C(=O)NC1C(=O)N2C(C(=O)OC(C)OC(C)=O)=C(COC(N)=O)CSC12)c1ccco1 (centres undefined)

>  <Readout>
normalized growth

>  <Observed>
0.996

$$$$

Okay, next one:
Prompt: So what does the record say about normalized growth for `CO/N=C(\C(=O)N[C@@H]1C(=O)N2C(C(=O)O)=C(COC(C)=O)CS[C@H]12)c1csc(N)n1` ?
Response: 0.992

----------
# Assay summary: chemical genetic growth profiling, strain panel (AID 1159580)
# Condition: S. cerevisiae deletion strains, growth OD, locus YMR219W, strain ESC1, active compounds read low
Among all 5,500 compounds or so, about 2,000 (36%) were called active. About 18% were inconclusive and are not listed. The list shows a part of the results.
Readout: normalized growth
Write the number on its own, no unit after it.

Prompt: Entry under review: `O=C(c1ccccc1)c1cc2c(cc1Br)OCCO2` . Reported normalized growth?
Response: 0.952

Prompt: What value of normalized growth has been recorded for this entry: `CSC(=NS(=O)(=O)c1ccccc1)SC`
Response: 0.995

Prompt: Please look up its normalized growth: `O=C1CCC(c2cccs2)=NN1`
Response: 0.997

Prompt: Entry `CC(=O)c1ccc(-c2cccs2)s1` has what normalized growth?
Response: 0.981

Prompt: I would be grateful if you could share the reported normalized growth for `CCN(CC)CCNC(=O)c1c(-c2c(Cl)cccc2Cl)noc1C` .
Response: 1.01

Prompt: Could you tell me which normalized growth is on file for `Cc1ccc(CC(=O)O)cc1` ?
Response: 0.985

Prompt: Field request: normalized growth | item: `Cc1cc(NC(=O)c2c(-c3c(Cl)cccc3Cl)noc2C)c([N+](=O)[O-])cc1C`
Response: 0.992

----------
Property: normalized growth; scope: individual compounds
# Assay summary: chemical genetic growth profiling, strain panel (AID 1159580);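 also: tested at 20 µM; growth read once vehicle control cultures reached saturation at 30 °C; 1 = growth at the plate median or of vehicle wells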
# Condition: S. cerevisiae deletion strains, growth OD, locus YJR066W, strain TOR1, active compounds read low
Among all 5,500 compounds or so, about 2,000 (36%) were called active. Inconclusive results (about 18%) are left out. The list shows a part of the results.
Respond numerically, and do not add a unit to the figure.

Completed entries (count: 5):
>  <Compound>
O=C1OC2(c3ccc(O)cc3Oc3cc(O)ccc32)c2ccccc21

>  <normalized growth>
0.938

$$$$
>  <Compound>
CC[N+](CC)(CC)CCOc1cccc(OCC[N+](CC)(CC)CC)c1OCC[N+](CC)(CC)CC

>  <normalized growth>
0.953

$$$$
>  <Compound>
COc1cc(-c2coc3cc(OC)c(OC)c(OC)c3c2=O)cc(OC)c1OC

>  <normalized growth>
0.99

$$$$
>  <Compound>
Cc1c(C(=S)Nc2ccccc2)sc2ccccc12

>  <normalized growth>
0.899

$$$$
>  <Compound>
COC(=O)C(C)c1ccc(C(=O)c2cccs2)cc1 (stereo unspecified)

>  <normalized growth>
0.982

$$$$

Would you kindly look at the next entry?
Prompt: Quick check: normalized growth of `CC(C)NC[C@H](O)COc1cccc2ccccc12` ?
Response: 0.996

----------
# Assay summary: chemical genetic growth profiling, strain panel (AID 1159580);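 also: tested at 20 µM; growth read once vehicle control cultures reached saturation at 30 °C; 1 = growth at the plate median or of vehicle wells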
# Condition: S. cerevisiae deletion strains, growth OD, locus YLR320W, strain mms22, active compounds read low
In all, about 5,500 compounds went through this assay and about 2,000 (36%) were called active. About 18% were inconclusive and are not listed. This is one part of the list.
Lab note: anything with normalized growth below 1 is marked t; values at 1 or higher are marked f.

Some solved cases for reference:
>  <Compound>
Clc1cccc(Cl)c1NC1=NCCN1

>  <Assigned class>
t

$$$$
>  <Compound>
O=C(Cn1ccnc1[N+](=O)[O-])NCCO

>  <Assigned class>
f

$$$$

Prompt: is_below(normalized growth, 1) for `Nc1ccc(N=Nc2ccccc2)c(N)n1` ?
Response: t

Prompt: Determine if O=C1CC2OCC=C3CN4CC[C@]56c7ccccc7N1C5[C@H]2[C@H]3CC46 (stereo partly drawn) shows normalized growth strictly lower than 1.
Response: f

Prompt: Quick check: does `CN1C(C(=O)Nc2ccccn2)=C(O)c2ccccc2S1(=O)=O` have normalized growth under 1?
Response: t

Prompt: Threshold test, normalized growth < 1: `O=c1cc(-c2ccccc2O)oc2cc(O)ccc12`
Response: t

Prompt: Would you kindly verify if normalized growth of C=C1CCC2C(CC2(C)C)C(=O)CCC1O (stereo not drawn) is strictly less than 1?
Response: f

Prompt: Consider `COc1cc([C@@H]2c3cc4c(c(O)c3C[C@H]3COC(=O)[C@@H]32)OCO4)cc(OC)c1OC` . Does its normalized growth lie strictly below 1?
Response: t

Prompt: In plain terms, does `Cc1ccc(C)c(OCCCC(C)(C)C(=O)O)c1` come in under 1 for normalized growth?
Response: t

Prompt: Consider `CC[N+](CC)(CC)CCOc1cccc(OCC[N+](CC)(CC)CC)c1OCC[N+](CC)(CC)CC` . Does its normalized growth lie strictly below 1?
Response: f

Prompt: is_below(normalized growth, 1) for CC(C)COCC(CN(Cc1ccccc1)c1ccccc1)N1CCCC1 (stereo not drawn) ?
Response: t

Prompt: # TODO verify normalized growth < 1 strictly for this compound: `COc1ccc(CCN2CCC(Nc3nc4ccccc4n3Cc3ccc(F)cc3)CC2)cc1`
Response: t

Prompt: Confirm or reject: normalized growth of CCCCCCCCCCCCCCCC(=O)OC1C(SC)OC(C(NC(=O)C2CC(CCC)CN2C)C(C)Cl)C(O)C1O (stereo not drawn) lies strictly below 1
Response: t

Prompt: Criterion: normalized growth strictly below 1. Is it met by `COC(=O)C1=CCCN(C)C1` ?
Response: t

----------
# Assay summary: chemical genetic growth profiling, strain panel (AID 1159580);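 also: tested at 20 µM; growth read once vehicle control cultures reached saturation at 30 °C; 1 = growth at the plate median or of vehicle wells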
# Condition: S. cerevisiae deletion strains, growth OD, locus YPR167C, strain met16, active compounds read low
About 2,000 (36%) of roughly 5,500 compounds were called active. Another 18% or so got no clear call; they are omitted. Some of the results follow.
// boundary case: normalized growth equal to 1 maps to not fulfilled; strictly smaller maps to fulfilled

Solved cases (3 shown):
>  <Molecule>
CO[C@@]1(NC(=O)CSCC#N)C(=O)N2C(C(=O)O)=C(CSc3nnnn3C)CSC21 (stereo not given in full)

>  <Assigned class>
not fulfilled

$$$$
>  <Molecule>
CO/N=C(\C(=O)NC1C(=O)N2C(C(=O)O)=C(COC(N)=O)CSC12)c1ccco1 (stereo not given)

>  <Assigned class>
fulfilled

$$$$
>  <Molecule>
CC1(C)O[C@H]2[C@H](O)C[C@](O)(C(N)=O)C[C@H]2O1

>  <Assigned class>
not fulfilled

$$$$

Prompt: Does this molecule meet the criterion normalized growth < 1? `COc1c(OC)c2occc2c2oc(=O)ccc12`
Response: fulfilled

The reported measurements were obtained from PubChem BioAssay AID1159580.
